Test: Multiple-ascending dose trial of Compound 2 in healthy participants
Assay type: in vivo, human
Settings: human, plasma, oral; Day 14, 1 mg QD
endpoint.name: Cmax
Express your answer as a number followed by its unit.

## Task Answer with reported Cmax of N#Cc1nn(-c2cc(Cl)c(Oc3n[nH]c(=O)c4ccccc34)c(Cl)c2)c(=O)[nH]c1=O [Compound 2]
## Result 80.3 ng/mL

* * *

Molecular target: OATP1B1 (Homo sapiens, UniProt Q9Y6L6)
Sequence (Q9Y6L6 1-691): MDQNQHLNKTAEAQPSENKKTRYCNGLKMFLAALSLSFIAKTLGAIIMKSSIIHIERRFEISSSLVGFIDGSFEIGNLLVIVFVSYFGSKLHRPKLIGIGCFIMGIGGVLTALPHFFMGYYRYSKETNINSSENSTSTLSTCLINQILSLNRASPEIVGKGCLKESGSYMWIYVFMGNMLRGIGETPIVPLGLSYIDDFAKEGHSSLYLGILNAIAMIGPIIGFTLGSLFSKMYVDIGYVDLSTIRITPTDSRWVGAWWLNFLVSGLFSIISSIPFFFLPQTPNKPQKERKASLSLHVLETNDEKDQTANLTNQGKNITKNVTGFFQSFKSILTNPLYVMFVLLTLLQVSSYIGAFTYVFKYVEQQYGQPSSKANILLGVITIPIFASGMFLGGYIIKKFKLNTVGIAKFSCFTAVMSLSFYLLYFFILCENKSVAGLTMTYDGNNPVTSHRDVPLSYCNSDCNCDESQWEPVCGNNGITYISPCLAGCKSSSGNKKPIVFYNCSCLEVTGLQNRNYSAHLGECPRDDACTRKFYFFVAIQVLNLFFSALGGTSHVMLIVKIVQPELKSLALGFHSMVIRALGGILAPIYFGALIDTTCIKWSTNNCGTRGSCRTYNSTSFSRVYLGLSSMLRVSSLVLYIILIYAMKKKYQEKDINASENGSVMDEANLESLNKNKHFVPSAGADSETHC
endpoint.name: IC50 (nM)
Answers are plain numbers, in nM.

## Task Answer with reported IC50 of N#Cc1nn(-c2cc(Cl)c(Oc3n[nH]c(=O)c4ccccc34)c(Cl)c2)c(=O)[nH]c1=O
## Result 2010

* * *

Assay: Single-ascending dose trial of Compound 2 in healthy participants: safety and PK
Assay type: in vivo, human
Conditions: human, plasma, oral; single dose 10 mg, fasted (n = 6); median (min-max)
endpoint.name: Tmax (h)
Answers are plain numbers, in h.

## Task Answer with reported Tmax of N#Cc1nn(-c2cc(Cl)c(Oc3n[nH]c(=O)c4ccccc34)c(Cl)c2)c(=O)[nH]c1=O
## Result 4

* * *

Target: OATP1B3 (Homo sapiens)
Sequence (Q9NPD5 1-702): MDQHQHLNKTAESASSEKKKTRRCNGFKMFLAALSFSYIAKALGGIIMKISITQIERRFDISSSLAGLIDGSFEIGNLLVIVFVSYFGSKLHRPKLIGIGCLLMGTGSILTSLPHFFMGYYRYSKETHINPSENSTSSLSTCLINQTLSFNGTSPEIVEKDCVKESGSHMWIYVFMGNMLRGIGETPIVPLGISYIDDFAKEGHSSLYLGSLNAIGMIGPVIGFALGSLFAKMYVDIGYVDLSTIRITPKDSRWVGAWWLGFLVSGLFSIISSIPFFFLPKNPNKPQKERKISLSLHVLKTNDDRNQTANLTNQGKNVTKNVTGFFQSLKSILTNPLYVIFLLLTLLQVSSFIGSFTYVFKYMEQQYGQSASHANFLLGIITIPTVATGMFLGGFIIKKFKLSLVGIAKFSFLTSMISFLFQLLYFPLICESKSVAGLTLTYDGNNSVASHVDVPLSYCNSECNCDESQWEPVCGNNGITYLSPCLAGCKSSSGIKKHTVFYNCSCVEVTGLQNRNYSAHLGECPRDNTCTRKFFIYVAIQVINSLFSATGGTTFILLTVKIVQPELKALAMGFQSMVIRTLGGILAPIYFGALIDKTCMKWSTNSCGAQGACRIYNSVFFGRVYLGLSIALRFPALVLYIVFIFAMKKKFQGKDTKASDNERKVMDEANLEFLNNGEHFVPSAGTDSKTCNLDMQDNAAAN
endpoint.name: IC50 (nM)
Numbers only, in nM.

## Task Answer with reported IC50 of N#Cc1nn(-c2cc(Cl)c(Oc3n[nH]c(=O)c4ccccc34)c(Cl)c2)c(=O)[nH]c1=O
## Result 710

src = patent US20230241071A1
